# assayed-target: T1, mouse serum albumin (mouse, UniProt P07724 25-608)
# T1 construct: also called MSA
# T1 sequence (P07724 25-608 limits assumed): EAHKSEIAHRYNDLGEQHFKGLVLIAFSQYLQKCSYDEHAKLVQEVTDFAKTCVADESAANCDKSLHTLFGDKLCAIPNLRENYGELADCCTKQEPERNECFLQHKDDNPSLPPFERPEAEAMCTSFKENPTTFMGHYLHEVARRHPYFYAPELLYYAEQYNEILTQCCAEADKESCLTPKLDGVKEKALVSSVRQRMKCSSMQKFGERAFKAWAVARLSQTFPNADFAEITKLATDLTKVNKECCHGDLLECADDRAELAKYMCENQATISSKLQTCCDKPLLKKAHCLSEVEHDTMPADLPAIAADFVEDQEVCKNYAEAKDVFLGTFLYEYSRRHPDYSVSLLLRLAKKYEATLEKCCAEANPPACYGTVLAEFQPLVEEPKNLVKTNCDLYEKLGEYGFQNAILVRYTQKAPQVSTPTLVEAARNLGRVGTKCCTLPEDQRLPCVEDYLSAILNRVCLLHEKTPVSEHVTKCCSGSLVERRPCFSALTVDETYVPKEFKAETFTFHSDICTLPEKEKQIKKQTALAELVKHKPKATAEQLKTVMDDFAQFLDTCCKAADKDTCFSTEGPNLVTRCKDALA
# experiment-summary: SPR pH 7.4
Measured Kd of individual entries
test-readout: Kd (nM)

>>> obs_value("T026301197 (bispecific antibody, name in Kabat numbering, bispecific ISVD construct; also called T0263018B11(E1D, S52aQ)-35GS-ALB23002-A) DVQLVESGGGVVQPGGSLRLSCAASGFTFSSYAMYWVRQAPGKGLEWVSAISQGGGSTDYADSVKGRFTISRDNSKNTLYLQMNSLRPEDTALYYCAADTLYTSLTWYSYWGQGTLVTVSSGGGGSGGGGSGGGGSGGGGSGGGGSGGGGSGGGGSEVQLVESGGGVVQPGGSLRLSCAASGFTFRSFGMSWVRQAPGKGPEWVSSISGSGSDTLYADSVKGRFTISRDNSKNTLYLQMNSLRPEDTALYYCTIGGSLSRSSQGTLVTVSSA")
69
>>> obs_value("T026301196 (bispecific antibody, name in Kabat numbering, bispecific ISVD construct; also called T0263018B11(E1D, G26T, S52aQ, W100cS)-35GS-ALB23002-A) DVQLVESGGGVVQPGGSLRLSCAASTFTFSSYAMYWVRQAPGKGLEWVSAISQGGGSTDYADSVKGRFTISRDNSKNTLYLQMNSLRPEDTALYYCAADTLYTSLTSYSYWGQGTLVTVSSGGGGSGGGGSGGGGSGGGGSGGGGSGGGGSGGGGSEVQLVESGGGVVQPGGSLRLSCAASGFTFRSFGMSWVRQAPGKGPEWVSSISGSGSDTLYADSVKGRFTISRDNSKNTLYLQMNSLRPEDTALYYCTIGGSLSRSSQGTLVTVSSA")
120
>>> obs_value("T026301195 (bispecific antibody, name in Kabat numbering, bispecific ISVD construct; also called T0263018B11(E1D, S31E, A33D, W100cS)-35GS-ALB23002-A) DVQLVESGGGVVQPGGSLRLSCAASGFTFSEYDMYWVRQAPGKGLEWVSAISSGGGSTDYADSVKGRFTISRDNSKNTLYLQMNSLRPEDTALYYCAADTLYTSLTSYSYWGQGTLVTVSSGGGGSGGGGSGGGGSGGGGSGGGGSGGGGSGGGGSEVQLVESGGGVVQPGGSLRLSCAASGFTFRSFGMSWVRQAPGKGPEWVSSISGSGSDTLYADSVKGRFTISRDNSKNTLYLQMNSLRPEDTALYYCTIGGSLSRSSQGTLVTVSSA")
120
>>> obs_value("T026301170 (bispecific antibody, bispecific ISVD construct; also called T0263018B11(E1D)-35GS-ALB23002-A) DVQLVESGGGVVQPGGSLRLSCAASGFTFSSYAMYWVRQAPGKGLEWVSAISSGGGSTDYADSVKGRFTISRDNSKNTLYLQMNSLRPEDTALYYCAADTLYTSLTWYSYWGQGTLVTVSSGGGGSGGGGSGGGGSGGGGSGGGGSGGGGSGGGGSEVQLVESGGGVVQPGGSLRLSCAASGFTFRSFGMSWVRQAPGKGPEWVSSISGSGSDTLYADSVKGRFTISRDNSKNTLYLQMNSLRPEDTALYYCTIGGSLSRSSQGTLVTVSSA")
85
>>> obs_value("T026301192 (bispecific antibody, name in Kabat numbering, bispecific ISVD construct; also called T0263018B11(E1D, S100E)-35GS-ALB23002-A) DVQLVESGGGVVQPGGSLRLSCAASGFTFSSYAMYWVRQAPGKGLEWVSAISSGGGSTDYADSVKGRFTISRDNSKNTLYLQMNSLRPEDTALYYCAADTLYTELTWYSYWGQGTLVTVSSGGGGSGGGGSGGGGSGGGGSGGGGSGGGGSGGGGSEVQLVESGGGVVQPGGSLRLSCAASGFTFRSFGMSWVRQAPGKGPEWVSSISGSGSDTLYADSVKGRFTISRDNSKNTLYLQMNSLRPEDTALYYCTIGGSLSRSSQGTLVTVSSA")
87
>>> obs_value("T026301198 (bispecific antibody, name in Kabat numbering, bispecific ISVD construct; also called T0263018B11(E1D, W100cS)-35GS-ALB23002-A) DVQLVESGGGVVQPGGSLRLSCAASGFTFSSYAMYWVRQAPGKGLEWVSAISSGGGSTDYADSVKGRFTISRDNSKNTLYLQMNSLRPEDTALYYCAADTLYTSLTSYSYWGQGTLVTVSSGGGGSGGGGSGGGGSGGGGSGGGGSGGGGSGGGGSEVQLVESGGGVVQPGGSLRLSCAASGFTFRSFGMSWVRQAPGKGPEWVSSISGSGSDTLYADSVKGRFTISRDNSKNTLYLQMNSLRPEDTALYYCTIGGSLSRSSQGTLVTVSSA")
120
